Would you kindly list growth inhibition for each of these molecules?
Assay: NCI Yeast Anticancer Drug Screen. Data for the rad50 strain (AID 155);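 note: 0% = growth of vehicle-only cultures of the same strain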
Conditions: S. cerevisiae rad50 strain growth inhibition; at 50.0 µM (retest, dose inferred, filed as 5.0); stronger effect = higher value
Compounds without any hit were thinned out: in the full panel of roughly 79,000, 15% have a hit.
Numbers only, in %.

The following molecules have reported results that may help.
Nc1ccc(S(=O)(=O)N2CCCc3ccccc32)cc1 :: 20
COc1c(Br)c(=O)n(C)c(=O)n1C :: 99
CCOc1c(N=Nc2ccccc2Cl)c(-c2ccccc2)nn1C(=S)S :: 20
CCCCCCCCCCCCCCCCCC(=O)Nc1ccn(C2OC(CO)C(O)C2O)c(=O)n1 (stereo unspecified) :: 4

Here are 8 molecules. What values of growth inhibition were reported for them?
1. CSC(=S)NN=C(c1ccccc1)c1ccccc1
2. C[n+]1c(-c2ccc(/C=N/NC(=O)c3ccc(C(=O)N/N=C/c4ccc(-c5cn6ccccc6[n+]5C)cc4)nc3)cc2)cn2ccccc21
3. CCN(CC)CCOc1cccc2c1C(=O)c1c(O)cccc1C2=O
4. C=Cc1cc(O)cc2c1-c1ccc(O)c(C)c1CC2
5. Clc1ccc(COC(CN2CCOCC2)c2ccccc2)c(Cl)c1 (stereo unspecified)
6. CCOC(=O)c1sc(N/N=C2\NC(=O)/C(=C/c3ccc([N+](=O)[O-])cc3)S2)nc1C
7. Nc1cc(Cl)ccc1S
8. CC1CCN(CCCOC(=O)c2ccccc2)CC1

[A]
1: 97; 2: 99; 3: 72; 4: 99; 5: 89; 6: 74; 7: 48; 8: 40

Dear colleague, could you send me growth inhibition for each of the items below? Thanks.
1. COC1CC(OC(=O)c2ccccc2)C(OC(=O)c2ccccc2)C(C)O1 (stereo unspecified)
2. Cc1c(N=Nc2c(S(=O)(=O)O)cc3cc(S(=O)(=O)O)c(N=Nc4c(C)n(C)n(-c5ccccc5)c4=O)c(O)c3c2O)c(=O)n(-c2ccccc2)n1C
3. CCOC(=O)C(C)(C)C
4. CC12CCC(c3sc(N)c(C#N)c31)C2(C)C (stereo unspecified)
5. Cc1cc(=Nc2ccc3c(c2)c(N)cc(C)[n+]3C)nc(N)n1C
6. O=C(Nc1ccc(NC(=O)Nc2cc(C(=O)Nc3ccc(C4=NCCN4)cc3)ccc2C(=O)Nc2ccc(C3=NCCN3)cc2)cc1)Nc1cc(C(=O)Nc2ccc(C3=NCCN3)cc2)ccc1C(=O)Nc1ccc(C2=NCCN2)cc1
7. Cc1cc(I)ccc1NC(=S)Nc1ccccc1F

[A]
[-4, -13, 29, -34, 88, -4, 62]

Record growth inhibition per entry; entries follow.
1. ClC1=C(Cl)C(Cl)(Cl)C(Cl)(Cl)C1(Cl)Cl
2. CCS(=O)(=O)C(C(O)C(O)C(O)C(O)CO)S(=O)(=O)CC (stereo unspecified)

[A]
7
-6

---

Assay: NCI Yeast Anticancer Drug Screen. Data for the mlh1 rad18 strain (AID 175)
Conditions: S. cerevisiae mlh1 rad18 strain growth inhibition; at 50.0 µM; stronger effect = higher value
The panel holds about 79,000 compounds, 15% with a hit somewhere; the sample as a whole holds those more often. The source made the active and inactive calls. Cut-off read from the data, not from the text of the source: active = growth inhibition above about 70%; inactive = the rest. Where a SMILES comes first, the peptide text is derived from it. The star is where a group is joined. Cbz = O=C(OCc1ccccc1)*; Boc = CC(C)(C)OC(=O)*; OSu = O=C1CCC(=O)N1O*; Bn = c1ccc(C*)cc1
Consider the following molecules; for each one, report its growth inhibition.

O=C(CC(=O)c1ccccc1)CC(=O)c1ccccc1 :: 84% (active)
NC(c1ccccc1)P(=O)(OCc1ccc([N+](=O)[O-])cc1)OCc1ccc([N+](=O)[O-])cc1 (stereo unspecified) :: 33.4% (inactive)
CCC(COS(=O)(=O)c1ccc(C)cc1)(COS(=O)(=O)c1ccc(C)cc1)COS(=O)(=O)c1ccc(C)cc1 :: 25.8% (inactive)
CSC(SC)(C(=O)O)c1cc(C)no1 :: 1.2% (inactive)
COc1ccc(OC)c(C[P+](c2ccccc2)(c2ccccc2)c2ccccc2)c1 :: 99% (active)

Count: 6. Required value per item: growth inhibition.
1. CSC(C=P(c1ccccc1)(c1ccccc1)c1ccccc1)=Nc1ccccc1
2. NCCNC[Si](c1ccccc1)(c1ccccc1)c1ccccc1
3. CCCCCCCCCCCCCCCCCCOC(=O)C(N)CCCCN (stereo unspecified)
4. CCN(CC)CCOc1ccc(C=C2c3ccccc3-c3ccccc32)cc1
5. CCOc1ccc(N=NS(=O)(=O)O)cc1
6. CCOC(=S)SSC(=S)NCCNC(=S)SSC(=S)OCC

[A]
1. 95.7% (active)
2. 11.4% (inactive)
3. 98.3% (active)
4. 98.9% (active)
5. 9.4% (inactive)
6. 76.4% (active)

List the reported growth inhibition of each molecule below.
1. C1CCC(C2CCC(N3CCCCC3)CC2)CC1 (stereo unspecified)
2. Cn1c2c(c3ccccc31)CCN(CCN1CCN(c3cccc(Cl)c3)CC1)C2=O
3. CC(C)(C)OC(=O)NC(Cc1ccc(OCc2ccccc2)cc1)C(=O)NC(CCCCNC(=O)OCc1ccccc1)C(=O)ON1C(=O)CCC1=O (stereo unspecified) (Boc-Tyr(Bn)-Lys(Cbz)-OSu; configuration not given here)
4. S=C(NC/C(Br)=C/Br)Nc1cccc2ccccc12
5. CNC(=O)OCc1c(COC(=O)NC)c2n(c1C)-c1ccccc1CCC2

[A]
1: 79.4% (active); 2: 80.6% (active); 3: 57% (inactive); 4: 81.3% (active); 5: 87.6% (active)

# batch size: 5; output growth inhibition per entry
1. O=S(=O)(Nc1ccccc1-c1ccc(Cl)cc1)c1ccccc1
2. CCOC(=O)N1C=C(C(=O)OC)C(c2ccccc2)C(C(=O)OC)=C1
3. CC(=O)Oc1ccc2cc(-c3ccccc3OC(C)=O)c(=O)oc2c1
4. CC(C)(C)CCCC(C(=O)O)c1ccccc1 (stereo unspecified)
5. Nc1nc2ccccc2cc1C(=O)O

[A]
73.7% (active)
1.25% (inactive)
74.5% (active)
85.1% (active)
3.9% (inactive)

---

Assay: NCI Yeast Anticancer Drug Screen. Data for the rad50 strain (AID 155);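 note: 0% = growth of vehicle-only cultures of the same strain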
Settings: S. cerevisiae rad50 strain growth inhibition; at 5.0 µM (retest, dose inferred, filed as 0.5); stronger effect = higher value
The panel holds about 79,000 compounds, 15% with a hit somewhere; the sample as a whole holds those more often.
For each of the compounds below, state its growth inhibition.
Answers are plain numbers, in %.

CCCCCCCCCCCCCCCCCC[N+](C)(C)Cc1ccc(C[N+](C)(C)CCCCCCCCCCCCCCCCCC)cc1 :: -5
Cc1[nH]c2ccccc2c1C1=CC2(C)Nc3ccccc3C2C(C)(C)C1 (stereo not given) :: -4
CCOC(=O)c1c(C)c2c(n1C)CCc1sc(N)nc1-2 :: 14
COc1ccc(CSC(=S)Nc2ccccc2C(F)(F)F)cc1 :: 8

Now, please, on to the next compound.
Lab note: measured growth inhibition of Cc1ccc(C2(c3ccc(F)cc3)OC(=O)c3ccccc32)c(O)c1 (stereo not given) was 11

---

Assignment: determine reported growth inhibition for the given compounds.
Experiment: NCI Yeast Anticancer Drug Screen. Data for the rad50 strain (AID 155);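 note: 0% = growth of vehicle-only cultures of the same strain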
Details: S. cerevisiae rad50 strain growth inhibition; at 50.0 µM; stronger effect = higher value
About 79,000 compounds went through this panel and 15% of them were active in at least one assay; those are over-represented in the sample as a whole. The source made the active and inactive calls. Rule as the data show it: active = growth inhibition above about 70%; inactive = the rest.

Dear reader, for each entry below, please note its growth inhibition.
1. CCCCCCCCCCCC(=O)NCCc1ccc(O)c(O)c1
2. COC1OC(CO)C(O)C(OC(=O)c2ccc([N+](=O)[O-])cc2)C1OS(=O)(=O)c1ccc(C)cc1 (stereo not drawn)
3. O=C1CCSC(=S)N1c1ccccc1C(F)(F)F

[A]
["97.2% (active)", "31.8% (inactive)", "99.1% (active)"]

The following compounds each have a reported value; give each one's growth inhibition.
1. CCCCn1cnc2c(SCc3ccccc3[N+](=O)[O-])nc(N)nc21
2. O=[N+]([O-])c1ccc(Sc2c3ccccc3nc3ccccc23)nc1
3. CCCC1CCCC1(CC(=O)c1ccccc1)C(=O)O (stereo not drawn)
4. Cc1ccc(Nc2nc3nc[nH]c3c(=O)[nH]2)cc1CO
5. CCC(=O)Oc1ccc(-c2ccccc2)cc1Cl
6. COc1cc2c(cc1O)C(O)CCCC2 (stereo not drawn)
7. Cc1cc(C)c(O)c(C(C)(C)C)c1
8. CCCCN(CCCC)S(=O)(=O)c1ccccc1

[A]
94.9% (active)
98.3% (active)
70.3% (active)
-4.35% (inactive)
97% (active)
6.6% (inactive)
92.3% (active)
44.7% (inactive)

For every record below, what is its growth inhibition?
1. COc1ccc(Cc2nc3ccc(Cl)cc3[nH]2)cc1
2. COc1cccc2c1C(=O)c1c(O)c3c(c(O)c1C2=O)C[C@@](O)(/C(C)=N\NC(N)=O)C[C@@H]3OC1CC(N)C(O)C(C)O1 (stereo partly drawn)
3. Cc1ccnc2[nH]c3ccccc3c(=O)c12
4. CC(CC(C)[C@H]1CCC2[C@H]3C(CC[C@@]21C)[C@@]1(C)CCC(O)C[C@H]1C[C@@H]3O)C(=O)O (stereo partly drawn)
5. Clc1ccccc1CN1COc2c(cc(Cl)c3cccnc23)C1
6. CC[N+]1(C)CC2CCC(CC2)C1 (stereo not drawn)
7. O=C1CCCCC1Sc1ccc(Cl)cc1 (stereo not drawn)

[A]
77% (active)
88.8% (active)
81.5% (active)
98.4% (active)
98.6% (active)
-1.6% (inactive)
91.2% (active)
